- tgt: Human Factor D (Homo sapiens (Human))
- assay.info: Human Factor D assay (Z-L-Lys-SBzl / DTNB, absorbance at 405 nm)
- Format: biochemical
- test.settings: Table 4; Human Factor D 80 nM, assay of Example 13
Catalogue of compounds with associated IC50

Sample answers from the record:
| compound | IC50 |
| --- | --- |
| Cc1c(Br)c(C(N)=O)nn1CC(=O)N1C[C@H](F)C[C@H]1C(=O)Nc1cccc(Br)n1 [Compound 107] | 1000 to 10000 nM |
| NC(=O)c1cc(O)cc(CC(=O)N2C[C@H](F)C[C@H]2C(=O)Nc2cccc(-c3ccccc3Cl)c2F)c1 [Compound 78] | < 1000 nM |
| CC(=O)c1nn(CC(=O)N2C[C@H](F)C[C@H]2C(=O)Nc2cccc(-c3ccc4nc(N)sc4c3)c2F)c2ccccc12 [Compound 101] | < 1000 nM |

Request: Write IC50 of NC(=O)c1nn(CC(=O)N2C[C@H](F)C[C@H]2C(=O)Nc2cccc(-c3ccc4c(c3)C(=O)CCC4)c2F)c2ccccc12 [Compound 93] ; system used: Human Factor D (Homo sapiens (Human))
Result: < 1000 nM

Request: System Human Factor D (Homo sapiens (Human)). Read-out IC50. Item NC(=O)c1nn(CC(=O)N2C[C@H](F)C[C@H]2C(=O)Nc2cccc(-c3cc(Cl)c4[nH]ccc4c3)c2F)c2ccccc12 [Compound 90] . Report value.
Result: < 1000 nM

###

- tgt: Human Factor D (Homo sapiens (Human), UniProt P00746)
- Sequence (P00746 26-253): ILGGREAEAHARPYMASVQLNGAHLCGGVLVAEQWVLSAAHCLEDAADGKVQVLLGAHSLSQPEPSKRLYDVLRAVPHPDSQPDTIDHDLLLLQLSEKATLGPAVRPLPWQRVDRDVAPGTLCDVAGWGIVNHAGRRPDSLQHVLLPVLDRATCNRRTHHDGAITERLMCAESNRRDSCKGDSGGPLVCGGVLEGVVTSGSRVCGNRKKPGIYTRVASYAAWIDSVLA
- assay.info: Human Factor D assay (Z-L-Lys-SBzl / DTNB, absorbance at 405 nm)
- Format: biochemical
- test.settings: Table 4; Human Factor D 80 nM, assay of Example 13
This section presents molecules with their documented IC50 values.

| input.smiles | tgt | IC50 |
| --- | --- | --- |
| COC(=O)c1cc(-c2cccc(NC(=O)[C@@H]3C[C@@H](F)CN3C(=O)Cn3nc(C(N)=O)c4ccccc43)c2F)cc2[nH]c(N)nc12 | Human Factor D (Homo sapiens (Human), UniProt P00746) | < 1000 nM |

Request: Let me know recorded IC50 for CC(=O)c1nn(CC(=O)N2C[C@H](F)C[C@H]2C(=O)Nc2cccc(-c3cc(C(=O)O)c4nc[nH]c4c3)c2F)c2ccccc12 , thanks.
Result: < 1000 nM

Request: Please report the measured IC50 for COC(=O)c1cc(-c2cccc(NC(=O)[C@@H]3C[C@@H](F)CN3C(=O)Cn3nc(C(N)=O)c4ccccc43)c2F)cc2[nH]c(NC(=O)OC(C)(C)C)nc12
Result: > 10000 nM

###

- tgt: Human Factor D (Homo sapiens (Human))
- assay.info: Human Factor D assay (Z-L-Lys-SBzl / DTNB, absorbance at 405 nm)
- Type: biochemical
- test.settings: Table 3; Human Factor D 80 nM, assay of Example 13
pIC50: −log10 of the molar value.
reported.endpoint: pIC50

| compound | tgt | reported.endpoint | value |
| --- | --- | --- | --- |
| NC(=O)c1cn(CC(=O)N2CCC[C@H]2C(=O)Nc2cccc(-c3ccccc3Cl)c2F)n2ccnc12 [Compound 54] | Human Factor D (Homo sapiens (Human)) | pIC50 | < 5.00 |
| Cc1cc2c(s1)c(C(=N)N)nn2CC(=O)N1C[C@H](F)C[C@H]1C(=O)Nc1cccc(-c2ccccc2Cl)c1F [Compound 73] | Human Factor D (Homo sapiens (Human)) | pIC50 | > 6.00 |
| NC(=O)c1nn(CC(=O)N2C[C@H](F)C[C@H]2C(=O)Nc2cccc(-c3ccc4nc(C(=O)O)[nH]c4c3Cl)c2F)c2ccccc12 [Compound 62] | Human Factor D (Homo sapiens (Human)) | pIC50 | > 6.00 |
| NC(=O)c1cccc(CC(=O)N2C[C@H](F)C[C@H]2C(=O)Nc2cccc(-c3ccccc3Cl)c2F)c1 [Compound 21] | Human Factor D (Homo sapiens (Human)) | pIC50 | > 6.00 |
| CC(=O)c1nc2ccc(-c3cccc(NC(=O)[C@@H]4C[C@@H](F)CN4C(=O)Cn4nc(C(N)=O)c5ccccc54)c3F)c(Cl)c2[nH]1 [Compound 18] | Human Factor D (Homo sapiens (Human)) | pIC50 | > 6.00 |
| CC(=O)c1cn(CC(=O)N[C@H](C(=O)Nc2cccc(Br)n2)[C@@H](C)O)c2ccccc12 [Compound 16] | Human Factor D (Homo sapiens (Human)) | pIC50 | 5.00 to 6.00 |

We next turn to a different compound, shown below.
Request: Supply pIC50 value. Item: CC(=O)c1cn(CC(=O)N(C)[C@H](C(=O)Nc2cccc(-c3ccccc3Cl)c2F)[C@@H](C)O)c2ccccc12 [Compound 15]
Result: 5.00 to 6.00
